Every entry's value here was drawn from patent US8426447B2.

test.system: BACE1 (Homo sapiens, UniProt P56817)
Sequence (P56817 46-501, species assumed): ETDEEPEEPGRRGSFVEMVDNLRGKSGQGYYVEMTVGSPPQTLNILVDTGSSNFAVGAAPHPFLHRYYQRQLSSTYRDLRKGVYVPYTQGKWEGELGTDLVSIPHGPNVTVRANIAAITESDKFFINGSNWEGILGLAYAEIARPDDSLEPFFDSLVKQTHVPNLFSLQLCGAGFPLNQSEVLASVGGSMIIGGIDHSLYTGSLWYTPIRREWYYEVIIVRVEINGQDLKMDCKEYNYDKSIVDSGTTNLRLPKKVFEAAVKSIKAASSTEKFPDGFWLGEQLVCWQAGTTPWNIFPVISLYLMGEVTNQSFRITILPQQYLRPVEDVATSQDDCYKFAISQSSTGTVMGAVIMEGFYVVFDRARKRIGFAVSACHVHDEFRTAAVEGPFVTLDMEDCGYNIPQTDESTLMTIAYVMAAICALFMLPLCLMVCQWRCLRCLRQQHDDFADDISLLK
assay.info: In Vitro BACE Cell-based Assay (HEK cell assay): Aβ40 in conditioned medium of cells stably expressing Amyloid Precursor Protein, sandwich ELISA
condition.parameters: read-out: HEK cell assay
pIC50: −log10 of the molar value.
metric.name: pIC50

Completed entries (count: 4):
1) CC(C)(C)COc1ccc2c(c1)[C@@]1(COC(N)=N1)c1cc(-c3ccnc(F)c3)cnc1O2: > 7.00
2) N#Cc1ccccc1Oc1ccc2c(c1)[C@]1(COC(N)=N1)c1cc(-c3cccnc3)ccc1O2: 5.30 to 6.00
3) NC1=N[C@]2(CO1)c1cc(C3=CCNCC3)ccc1Oc1ccc(-c3cncnc3)cc12: > 7.00
4) CC(C)(C)CCOc1nccc2c1[C@]1(COC(N)=N1)c1cc(-c3cncnc3)ccc1O2: 6.00 to 7.00

Hi! Can you tell me pIC50 for each of these compounds?
1. CC(C)(C)COc1ccc2c(c1)[C@]1(COC(N)=N1)c1cc(C3=CC4CCC3C4)ccc1O2 (some centres unmarked)
2. N#Cc1ccc(-c2ccc3c(c2)[C@@]2(COC(N)=N2)c2cc(-c4cccnc4)ccc2O3)cn1
3. CC(C)(C)COc1ccc2c(c1)[C@]1(CSC(N)=N1)c1cc(-c3cncnc3)ccc1O2
4. CSc1ccc(-c2ccc3c(c2)[C@]2(COC(N)=N2)c2cc(OCC(C)(C)C)ccc2O3)cc1

RESULT:
1: 5.30 to 6.00; 2: > 7.00; 3: > 7.00; 4: 5.30 to 6.00
